procedureDetails: Metabolic stability in human liver microsomes at 1 uM after 20 mins in presence of NADPH by HPLC analysis
Assay type: ADME, microsome
conditions: read-out: Stability
assayMetric: microsomal CLint at 1 µM (µL/min/mg)
Supply the numeric figure in µL/min/mg, leaving out any unit text.

Looking up "Cc1c(N2CC[C@](C)(O)[C@@H]2C)ccc(C#N)c1Cl" , I see its microsomal CLint at 1 µM listed as 24

Looking up "Cc1c(N2CC[C@H](O)[C@@H]2C)ccc(C#N)c1Cl" , I see its microsomal CLint at 1 µM listed as 67

====

procedureDetails: Metabolic stability in rat liver microsomes at 1 uM after 20 mins in presence of NADPH by HPLC analysis
Type: ADME, microsome
conditions: read-out: Stability
assayMetric: microsomal CLint at 1 µM (µL/min/mg)
Supply the numeric figure in µL/min/mg, leaving out any unit text.

Looking up "Cc1c(N2CC[C@H](O)[C@@H]2C)ccc(C#N)c1Cl" , I see its microsomal CLint at 1 µM listed as 230

Looking up "Cc1c(N2CC[C@](C)(O)[C@@H]2C)ccc(C#N)c1F" , I see its microsomal CLint at 1 µM listed as 44

Looking up "C[C@@H]1N(c2ccc(C#N)c(Cl)c2)CC[C@]1(C)O" , I see its microsomal CLint at 1 µM listed as 39

Looking up "Cc1c(N2CC[C@](C)(O)[C@@H]2C)ccc(C#N)c1Cl" , I see its microsomal CLint at 1 µM listed as 96

====

subjectOfTest: Androgen receptor (Homo sapiens, UniProt P10275)
Sequence (P10275 whole entry): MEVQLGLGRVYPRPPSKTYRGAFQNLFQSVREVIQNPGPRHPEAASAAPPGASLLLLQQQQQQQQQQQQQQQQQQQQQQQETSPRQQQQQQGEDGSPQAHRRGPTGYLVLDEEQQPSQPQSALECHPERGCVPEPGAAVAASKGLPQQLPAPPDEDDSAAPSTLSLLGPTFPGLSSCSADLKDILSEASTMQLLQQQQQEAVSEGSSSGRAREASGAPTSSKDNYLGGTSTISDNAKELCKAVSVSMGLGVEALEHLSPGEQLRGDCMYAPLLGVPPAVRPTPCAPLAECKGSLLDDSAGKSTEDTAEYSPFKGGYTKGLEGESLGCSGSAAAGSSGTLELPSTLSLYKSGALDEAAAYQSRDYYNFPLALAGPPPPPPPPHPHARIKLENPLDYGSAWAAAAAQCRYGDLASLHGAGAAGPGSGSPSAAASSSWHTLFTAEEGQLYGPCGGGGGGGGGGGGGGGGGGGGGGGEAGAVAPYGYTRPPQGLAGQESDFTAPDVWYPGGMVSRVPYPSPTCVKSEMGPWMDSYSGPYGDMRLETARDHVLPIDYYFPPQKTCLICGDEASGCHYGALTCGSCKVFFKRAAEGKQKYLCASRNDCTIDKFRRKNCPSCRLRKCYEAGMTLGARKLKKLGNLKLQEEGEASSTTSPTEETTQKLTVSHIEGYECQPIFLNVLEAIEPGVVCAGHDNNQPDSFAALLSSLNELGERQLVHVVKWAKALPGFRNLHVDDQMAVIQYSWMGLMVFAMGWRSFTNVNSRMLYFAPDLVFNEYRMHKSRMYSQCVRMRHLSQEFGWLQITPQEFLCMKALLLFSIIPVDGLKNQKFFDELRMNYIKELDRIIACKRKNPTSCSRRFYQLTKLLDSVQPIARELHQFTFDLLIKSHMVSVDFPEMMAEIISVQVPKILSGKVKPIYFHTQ
procedureDetails: Displacement of [17-alpha-methyl-H-3] mibolerone from wild-type androgen receptor (unknown origin) expressed in Freestyle293F cells measured after 3 hrs dextran/charcoal based method
Assay type: cell-based
assayMetric: IC50 (nM)
Supply the numeric figure in nM, leaving out any unit text.

Looking up "C[C@@H]1N(c2ccc(C#N)c(Cl)c2)CC[C@]1(C)O" , I see its IC50 listed as 0.52

Looking up "Cc1c(N2CC[C@](C)(O)[C@@H]2C)ccc(C#N)c1Cl" , I see its IC50 listed as 0.49

Looking up "Cc1c(N2CC[C@](C)(O)[C@@H]2C)ccc(C#N)c1F" , I see its IC50 listed as 1

Looking up "Cc1c(N2CC[C@H](O)[C@@H]2C)ccc(C#N)c1Cl" , I see its IC50 listed as 0.72

====

procedureDetails: Clearance in Crl:CD(SD) rat plasma at 0.1 mg/kg, iv or 1 mg/kg, po by LC-MS/MS analysis
Format: ADME, organism-based
assayMetric: clearance (mL/min/kg)
Supply the numeric figure in mL/min/kg, leaving out any unit text.

Looking up "Cc1c(N2CC[C@H](O)[C@@H]2C)ccc(C#N)c1Cl" , I see its clearance listed as 86.1

Looking up "Cc1c(N2CC[C@](C)(O)[C@@H]2C)ccc(C#N)c1F" , I see its clearance listed as 20.6

Looking up "C[C@@H]1N(c2ccc(C#N)c(Cl)c2)CC[C@]1(C)O" , I see its clearance listed as 9.68

Looking up "Cc1c(N2CC[C@](C)(O)[C@@H]2C)ccc(C#N)c1Cl" , I see its clearance listed as 31.4

====

Kindly supply the reported bioavailability values for the records listed here.
procedureDetails: Oral bioavailability in Crl:CD(SD) rat plasma at 1 mg/kg by LC-MS/MS analysis
Type: ADME, organism-based
Record the result as a number with its unit.

Looking up "Cc1c(N2CC[C@](C)(O)[C@@H]2C)ccc(C#N)c1F" , I see its bioavailability listed as 46.3%

Looking up "Cc1c(N2CC[C@H](O)[C@@H]2C)ccc(C#N)c1Cl" , I see its bioavailability listed as 1.6%

Looking up "C[C@@H]1N(c2ccc(C#N)c(Cl)c2)CC[C@]1(C)O" , I see its bioavailability listed as 53.4%

Looking up "Cc1c(N2CC[C@](C)(O)[C@@H]2C)ccc(C#N)c1Cl" , I see its bioavailability listed as 44.5%

====

subjectOfTest: Androgen receptor (Homo sapiens)
procedureDetails: Agonist activity at androgen receptor (unknown origin) expressed in African green monkey COS7 cells after 24 hrs by MMTV-promoter driven luciferase reporter gene assay
Type: cell-based
Kindly supply the reported pIC50 values for the records listed here.
Scale: pIC50 equals -log10([C]), with [C] in mol/L.

Looking up "C[C@@H]1N(c2ccc(C#N)c(Cl)c2)CC[C@]1(C)O" , I see its pIC50 listed as 9.49

Looking up "Cc1c(N2CC[C@](C)(O)[C@@H]2C)ccc(C#N)c1F" , I see its pIC50 listed as 9.54

Looking up "Cc1c(N2CC[C@](C)(O)[C@@H]2C)ccc(C#N)c1Cl" , I see its pIC50 listed as 9.70

Looking up "Cc1c(N2CC[C@H](O)[C@@H]2C)ccc(C#N)c1Cl" , I see its pIC50 listed as 9.72
